# System: 317291-083-R-J1-PDC complex spheroids, viability;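 note: spheroids exposed to compounds for one week before readout; percent viability relative to DMSO vehicle wells taken as 100%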
# protocol.details: Anticancer human tumor 317291-083-R-J1-PDC patient-derived soft tissue sarcoma cell line growth inhibition [GQUAD]
# condition.label: second compound 10 µM; first compound 0.1 µM; hits give low values
attribute.measured: viability, T/C (%)
Form entry: value (%) — number only.

Below, 10 molecules whose answers are already recorded.
molecule	measured.on	attribute.measured	measurement
Cc1cccc(N(C)C(=O)C2C(O)CCN2c2nc(C)cc(C(F)(F)F)c2C#N)c1 (centres undefined) + CN(C)c1ccc(Nc2c3ccc(NC(=O)CCN4CCCC4)cc3nc3cc(NC(=O)CCN4CCCC4)ccc23)cc1	317291-083-R-J1-PDC complex spheroids, viability	viability, T/C	11.6
CCCS(=O)(=O)Nc1ccc(F)c(C(=O)c2c[nH]c3ncc(-c4ccc(Cl)cc4)cc23)c1F + Cc1cnc(CNC(=O)c2c(=O)c3ccc(N4CCCN(C)CC4)nc3n3c2sc2ccccc23)cn1	317291-083-R-J1-PDC complex spheroids, viability	viability, T/C	6.4
O=c1[nH]cc(F)c(=O)[nH]1 + Cc1[nH]c2ccc(F)cc2c1-c1nc2c3cccnc3c3ncccc3c2[nH]1	317291-083-R-J1-PDC complex spheroids, viability	viability, T/C	75.9
C=CC(=O)N1CCN(c2nc(=O)n(-c3c(C)ccnc3C(C)C)c3nc(-c4c(O)cccc4F)c(F)cc23)C(C)C1 (centres undefined) + CN(C)c1ccc(Nc2c3ccc(NC(=O)CCN4CCCC4)cc3nc3cc(NC(=O)CCN4CCCC4)ccc23)cc1	317291-083-R-J1-PDC complex spheroids, viability	viability, T/C	15.1
COc1ccc([C@@H](O)c2cc(-c3ncnc4cc(N5CCOCC5)ccc34)c(F)cc2Cl)nn1 + CN(C)c1ccc(Nc2c3ccc(NC(=O)CCN4CCCC4)cc3nc3cc(NC(=O)CCN4CCCC4)ccc23)cc1	317291-083-R-J1-PDC complex spheroids, viability	viability, T/C	15
CC1COCCN1c1cc(-c2ccnn2C)c2ccnc(-c3ccn[nH]3)c2n1 (centres undefined) + CN(C)c1ccc(Nc2c3ccc(NC(=O)CCN4CCCC4)cc3nc3cc(NC(=O)CCN4CCCC4)ccc23)cc1	317291-083-R-J1-PDC complex spheroids, viability	viability, T/C	5.3
CCCS(=O)(=O)Nc1ccc(F)c(C(=O)c2c[nH]c3ncc(-c4ccc(Cl)cc4)cc23)c1F + CN(C)c1ccc(Nc2c3ccc(NC(=O)CCN4CCCC4)cc3nc3cc(NC(=O)CCN4CCCC4)ccc23)cc1	317291-083-R-J1-PDC complex spheroids, viability	viability, T/C	0.37
CC1COCCN1c1cc(-c2ccnn2C)c2ccnc(-c3ccn[nH]3)c2n1 (centres undefined) + Cc1cnc(CNC(=O)c2c(=O)c3ccc(N4CCCN(C)CC4)nc3n3c2sc2ccccc23)cn1	317291-083-R-J1-PDC complex spheroids, viability	viability, T/C	11.6
CCCS(=O)(=O)Nc1ccc(F)c(C(=O)c2c[nH]c3ncc(-c4ccc(Cl)cc4)cc23)c1F + Cc1[nH]c2ccc(F)cc2c1-c1nc2c3cccnc3c3ncccc3c2[nH]1	317291-083-R-J1-PDC complex spheroids, viability	viability, T/C	47.5
C=CCn1c(=O)c2cnc(Nc3ccc(N4CCN(C)CC4)cc3)nc2n1-c1cccc(C(C)(C)O)n1 + CN(C)c1ccc(Nc2c3ccc(NC(=O)CCN4CCCC4)cc3nc3cc(NC(=O)CCN4CCCC4)ccc23)cc1	317291-083-R-J1-PDC complex spheroids, viability	viability, T/C	0.13

Could you now consider this next molecule?
[ask] viability, T/C for O=C(c1cc(Cc2n[nH]c(=O)c3ccccc23)ccc1F)N1CCN(C(=O)C2CC2)CC1 + Cc1cnc(CNC(=O)c2c(=O)c3ccc(N4CCCN(C)CC4)nc3n3c2sc2ccccc23)cn1 ?
[reply] 16.8
